B1: PPEF2 (parent)
chain: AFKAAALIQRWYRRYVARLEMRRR

- Variants of: B1
- Assay Protocol: protein stability index of a GFP-peptide fusion (GPS, HEK-293T) (PSI 1-6); higher = more stable;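 note: lentivirally expressed fusions sorted by FACS into six bins by GFP to DsRed ratio, PSI derived from sequencing read proportions per bin multiplied by bin number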
- Condition Label: c terminus: a fixed tail appended
Exercise: state measured protein stability index for each of the variants provided.

- A1D: 2.36
- W11M: 2.84
- R23C: 3.14
- Q9L: 3.44
- R14E: 2.32

Report protein stability index for each item below.
1. L7R
2. R18W
3. R13E
4. M21D

Outgoing:
1. 5.03
2. 2.77
3. 1.95
4. 2.98

Report protein stability index for each item below.
1. K3R
2. A17W
3. L7I
4. R13P

Outgoing:
3.84
2.66
4.77
1.23

Report protein stability index for each item below.
1. Y15V
2. I8F
3. A1E
4. F2A
5. A4F
6. F2W
7. E20M
8. A1W

Outgoing:
[4.4, 2.29, 4.09, 3.87, 3.17, 3.79, 2.39, 1.77]
